Assign IC50 to each entry below.
biological target: PCSK9 (Homo sapiens); assay: PCSK9/EGF(A) TR-FRET binding assay; settings: TR-FRET; Table 8E, additional compounds; read-out: PCSK9/EGF(A) IC50
Square brackets hold non-standard residues; d marks the D form. Peptide text beside a SMILES is read from it. * marks the point of attachment. Desaminotyrosyl = O=C(CCc1ccc(O)cc1)*; X16 = O=C(c1cc(-c2ccncc2)[nH]n1)*; hArg = N=C(N)NCCCC[C@H](N)C(=O)O; X41 = O=C(CCn1cncn1)*

Measured IC50, CC[C@H](C)[C@H](NC(=O)[C@H](CCCCNC(=N)N)NC(=O)[C@@H](NC(=O)[C@H](CC(C)C)NC(=O)[C@H](CC(N)=O)NC(=O)[C@H](Cc1c[nH]c2ccccc12)NC(=O)CCc1ccc(O)cc1)C(C)C)C(=O)NCC(=O)N[C@@H](CC(C)C)C(=O)N[C@@H](CC(C)C)C(=O)N[C@@H](CCCNC(=N)N)C(N)=O [Compound 214] (Desaminotyrosyl-WNLV[hArg]IGLLR-NH2) : 3 µM

Measured IC50, CC[C@H](C)[C@H](NC(=O)[C@H](CCCNC(=N)N)NC(=O)[C@@H](NC(=O)[C@H](CC(C)C)NC(=O)[C@H](CC(N)=O)NC(=O)[C@H](Cc1c[nH]c2ccccc12)NC(=O)c1cc(-c2ccncc2)[nH]n1)C(C)C)C(=O)NCC(=O)N[C@@H](CC(C)C)C(=O)N[C@@H](CC(C)C)C(=O)N[C@@H](CCCNC(=N)N)C(N)=O [Compound 150] (X16-WNLVRIGLLR-NH2) : 22 µM

Measured IC50, CC[C@H](C)[C@H](NC(=O)[C@H](CCCNC(=N)N)NC(=O)[C@@H](NC(=O)[C@H](CC(C)C)NC(=O)[C@H](CC(N)=O)NC(=O)[C@H](Cc1c[nH]c2ccccc12)NC(=O)CCn1cncn1)C(C)C)C(=O)NCC(=O)N[C@@H](CC(C)C)C(=O)N[C@@H](CC(C)C)C(=O)N[C@@H](CCCNC(=N)N)C(N)=O [Compound 142] (X41-WNLVRIGLLR-NH2) : ≥ 50 µM

====

molecular target: PCSK9Δhelix (Homo sapiens); construct: Human PCSK9 construct M1-Q692 with an engineered TEV site (residue deletion Y166, R167); made in house; host or cells: CHO; experiment: PCSK9Δhelix/Ab20 TR-FRET binding assay; conditions: TR-FRET; Table 8D, disulfide-cyclized extension peptides; read-out: PCSK9Δhelix/Ab20 IC50
Bridge positions count the residues as written; N and C are the ends. Peptide text beside a SMILES is read from it.
Measured Quantity: IC50 (µM)
Could you give me the number in µM? Just the number is fine.

Measured IC50, CC[C@H](C)[C@@H]1NC(=O)[C@H](CCCNC(=N)N)NC(=O)[C@H](CCC(N)=O)NC(=O)[C@H](CC(C)C)NC(=O)[C@H](CC(N)=O)NC(=O)[C@H](Cc2c[nH]c3ccccc23)NC(=O)[C@@H]2CCCN2C(=O)[C@H](CC(C)C)NC(=O)[C@H](CCCNC(=N)N)NC(=O)[C@@H](NC(C)=O)CSSC[C@@H](C(N)=O)NC(=O)[C@@H]2CCCN2C(=O)[C@H](CC(C)C)NC(=O)[C@H](C)NC1=O [Compound 70] (Ac-CRLPWNLQRIALPC-NH2; disulfide 1-14) : 7.26

====

Assign IC50 to each entry below.
target: PCSK9Δhelix (Homo sapiens, UniProt Q8NBP7); construct: Human PCSK9 construct M1-Q692 with an engineered TEV site (residue deletion Y166, R167); made in house; host or cells: CHO; experiment: PCSK9Δhelix/Ab20 TR-FRET binding assay; details: TR-FRET; Table 8E, additional compounds; read-out: PCSK9Δhelix/Ab20 IC50
Sequence (Q8NBP7 with tags, fused parts or gaps limits assumed): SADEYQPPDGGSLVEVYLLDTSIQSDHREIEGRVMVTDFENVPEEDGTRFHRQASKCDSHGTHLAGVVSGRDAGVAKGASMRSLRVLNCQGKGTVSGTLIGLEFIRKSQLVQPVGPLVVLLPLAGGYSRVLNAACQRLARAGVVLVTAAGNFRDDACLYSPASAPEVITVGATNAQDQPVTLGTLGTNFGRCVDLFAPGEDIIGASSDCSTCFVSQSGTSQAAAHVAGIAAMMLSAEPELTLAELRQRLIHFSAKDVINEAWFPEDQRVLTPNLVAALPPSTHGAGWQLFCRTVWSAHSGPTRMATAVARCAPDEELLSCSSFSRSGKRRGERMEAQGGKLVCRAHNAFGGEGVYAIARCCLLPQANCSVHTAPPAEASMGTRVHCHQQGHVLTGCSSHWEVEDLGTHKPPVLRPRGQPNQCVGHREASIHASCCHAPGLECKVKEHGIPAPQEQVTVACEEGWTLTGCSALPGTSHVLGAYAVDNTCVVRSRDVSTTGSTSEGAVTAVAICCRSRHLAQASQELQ
Sequence (Q8NBP7 31-152 partner limits assumed): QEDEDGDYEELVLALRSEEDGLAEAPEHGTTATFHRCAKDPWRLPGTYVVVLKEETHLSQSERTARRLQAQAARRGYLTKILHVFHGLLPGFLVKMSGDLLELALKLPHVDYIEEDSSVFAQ
Square brackets hold non-standard residues; d marks the D form. Peptide text beside a SMILES is read from it. * marks the point of attachment. hArg = N=C(N)NCCCC[C@H](N)C(=O)O; X39 = O=C(C1CCC(c2ccccc2)CC1)*
Could you give me the number in nM? Just the number is fine.

Measured IC50, CC[C@H](C)[C@H](NC(=O)[C@H](CCCNC(=N)N)NC(=O)[C@@H](NC(=O)[C@H](CC(C)C)NC(=O)[C@H](CC(N)=O)NC(=O)[C@H](Cc1c[nH]c2ccccc12)NC(=O)C1CCC(c2ccccc2)CC1)C(C)C)C(=O)NCC(=O)N[C@@H](CC(C)C)C(=O)N[C@@H](CC(C)C)C(=O)N[C@@H](CCCNC(=N)N)C(N)=O (some centres unmarked) [Compound 147] (X39-WNLVRIGLLR-NH2) : 410

Measured IC50, CC[C@H](C)[C@H](NC(=O)[C@H](CCCCNC(=N)N)NC(=O)[C@@H](NC(=O)[C@H](CC(C)C)NC(=O)[C@H](CC(N)=O)NC(=O)[C@H](Cc1c[nH]c2ccccc12)NC(=O)[C@H](N)Cc1ccc(O)cc1)C(C)C)C(=O)NCC(=O)N[C@@H](CC(C)C)C(=O)N[C@@H](CC(C)C)C(=O)N[C@@H](CCCNC(=N)N)C(N)=O [Compound 223] (H-[dY]WNLV[hArg]IGLLR-NH2) : 1400

====

test system: His-EGF(A)-Fc; assay: His-EGF(A)-Fc TR-FRET counterscreen; conditions: TR-FRET counterscreen; Table 8D; * = some inhibition at highest concentrations, not sufficient to fit an IC50
pIC50: −log10 of the molar value. Bridge positions count the residues as written; N and C are the ends. Square brackets hold non-standard residues; d marks the D form. Peptide text beside a SMILES is read from it.
Measured Quantity: pIC50

Measured pIC50, CC[C@H](C)[C@@H]1NC(=O)[C@H](CCCNC(=N)N)NC(=O)[C@H](CCC(N)=O)NC(=O)[C@H](CC(C)C)NC(=O)[C@H](CC(N)=O)NC(=O)[C@H](Cc2c[nH]c3ccccc23)NC(=O)[C@@H]2CCCN2C(=O)[C@H](CC(C)C)NC(=O)[C@@H](CCCNC(=N)N)NC(=O)[C@@H](NC(C)=O)CSSC[C@@H](C(N)=O)NC(=O)[C@@H]2CCCN2C(=O)[C@H](CC(C)C)NC(=O)CNC1=O [Compound 109] (Ac-C[dR]LPWNLQRIGLPC-NH2; disulfide 1-14) : < 4.30

Measured pIC50, CC[C@H](C)[C@@H]1NC(=O)[C@H](CCCNC(=N)N)NC(=O)[C@H](CCCCN)NC(=O)[C@H](CC(C)C)NC(=O)[C@H](CC(N)=O)NC(=O)[C@H](Cc2c[nH]c3ccccc23)NC(=O)[C@@H](NC(C)=O)CSSC[C@@H](C(=O)N[C@@H](Cc2c[nH]c3ccccc23)C(N)=O)NC(=O)CNC(=O)[C@H](CCC(N)=O)NC(=O)[C@H](CO)NC(=O)CNC1=O [Compound 39] (Ac-CWNLKRIGSQGCW-NH2; disulfide 1-12) : < 4.30

Measured pIC50, CC[C@H](C)[C@@H]1NC(=O)[C@H](CCCNC(=N)N)NC(=O)[C@H](CCCCN)NC(=O)[C@H](CC(C)C)NC(=O)[C@H](CC(N)=O)NC(=O)[C@H](Cc2c[nH]c3ccccc23)NC(=O)[C@H](CC(C)C)NC(=O)[C@@H](NC(=O)[C@H](CC(=O)O)NC(C)=O)CSSC[C@@H](C(=O)N[C@@H](CCC(=O)O)C(=O)N[C@@H](Cc2ccc(O)cc2)C(N)=O)NC(=O)[C@H](CCC(N)=O)NC(=O)[C@H](CO)NC(=O)CNC1=O [Compound 64] (Ac-DCLWNLKRIGSQCEY-NH2; disulfide 2-13) : < 4.30

====

biological target: PCSK9 (Homo sapiens, UniProt Q8NBP7); experiment: PCSK9/EGF(A) TR-FRET binding assay; conditions: TR-FRET; Table 8E, additional compounds; read-out: PCSK9/EGF(A) IC50
Sequence (Q8NBP7 153-692): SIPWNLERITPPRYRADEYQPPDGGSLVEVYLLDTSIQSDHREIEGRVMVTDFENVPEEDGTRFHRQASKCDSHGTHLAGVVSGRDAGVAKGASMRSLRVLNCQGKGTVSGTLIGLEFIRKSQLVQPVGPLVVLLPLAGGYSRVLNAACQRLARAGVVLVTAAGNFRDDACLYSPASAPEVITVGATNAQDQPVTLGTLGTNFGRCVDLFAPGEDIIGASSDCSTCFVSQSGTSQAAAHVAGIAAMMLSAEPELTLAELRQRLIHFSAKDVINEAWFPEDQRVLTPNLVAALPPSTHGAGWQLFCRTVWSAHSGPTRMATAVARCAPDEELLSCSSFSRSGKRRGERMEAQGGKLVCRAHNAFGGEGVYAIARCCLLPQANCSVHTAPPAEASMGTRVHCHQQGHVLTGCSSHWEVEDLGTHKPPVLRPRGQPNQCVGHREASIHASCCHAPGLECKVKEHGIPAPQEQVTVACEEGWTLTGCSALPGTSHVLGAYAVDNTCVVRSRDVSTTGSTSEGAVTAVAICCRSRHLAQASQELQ
Sequence (Q8NBP7 31-152 partner limits assumed): as the sequence (Q8NBP7 31-152 partner limits assumed) above
Peptide text beside a SMILES is read from it. * marks the point of attachment. X22 = O=C(C1CC(Cc2ccccc2)C1)*; Pentanoyl = CCCCC(=O)*
Measured Quantity: IC50

Measured IC50, CCCCC(=O)N[C@@H](Cc1c[nH]c2ccccc12)C(=O)N[C@@H](CC(N)=O)C(=O)N[C@@H](CC(C)C)C(=O)N[C@@H](CCCCN)C(=O)N[C@@H](CCCNC(=N)N)C(=O)N[C@H](C(=O)NCC(=O)N[C@@H](CC(C)C)C(=O)N[C@@H](CC(C)C)C(=O)N[C@@H](CCCNC(=N)N)C(N)=O)[C@@H](C)CC [Compound 159] (Pentanoyl-WNLKRIGLLR-NH2) : ≥ 50 µM

Measured IC50, CC[C@H](C)[C@H](NC(=O)[C@H](CCCNC(=N)N)NC(=O)[C@@H](NC(=O)[C@H](CC(C)C)NC(=O)[C@H](CC(N)=O)NC(=O)[C@H](Cc1c[nH]c2ccccc12)NC(=O)C1CC(Cc2ccccc2)C1)C(C)C)C(=O)NCC(=O)N[C@@H](CC(C)C)C(=O)N[C@@H](CC(C)C)C(=O)N[C@@H](CCCNC(=N)N)C(N)=O (stereo partly drawn) [Compound 144] (X22-WNLVRIGLLR-NH2) : 9.7 µM

Measured IC50, CCCCC(=O)N[C@@H](Cc1c[nH]c2ccccc12)C(=O)N[C@@H](CC(N)=O)C(=O)N[C@@H](CC(C)C)C(=O)N[C@H](C(=O)N[C@@H](CCCNC(=N)N)C(=O)N[C@H](C(=O)NCC(=O)N[C@@H](CC(C)C)C(=O)N[C@H](C(=O)N[C@@H](CCCNC(=N)N)C(=O)O)[C@@H](C)O)[C@@H](C)CC)C(C)C [Compound 176] (Pentanoyl-WNLVRIGLTR-OH) : ≥ 50 µM

Where do the numbers come from? From patent US11034725B2.
